# testName: Water Solubility Assay
# Type: physicochemical
# assayContext: Milli Q water, water, thermodynamic from solid, room temperature, stirred 3 hours, HPLC
endpointName: solubility at 3 h (µg/mL)

                                   compound  observedresult
0  CNCc1ccc(-c2[nH]c3cc(F)cc4c3c2CCNC4=O)cc1.Cl [Hydrochloride]            1600
1  CC(=O)O.CNCc1ccc(-c2[nH]c3cc(F)cc4c3c2CCNC4=O)cc1 [Acetate]            8800
2  CNCc1ccc(-c2[nH]c3cc(F)cc4c3c2CCNC4=O)cc1.O=C(O)C(O)C(O)C(=O)O [Tartrate]            1100
3  CNCc1ccc(-c2[nH]c3cc(F)cc4c3c2CCNC4=O)cc1.CS(=O)(=O)O [Mesylate]           15500
